FYI, the data here is from ChEMBL document CHEMBL3870308.

Entries and their IC50 at 48 h
ASSAY TEXT: Cytotoxicity against human A549 cells measured after 48 hrs by MTT assay
Type: toxicity, cell-based
QUANTITY MEASURED: IC50 at 48 h (µM)

>>> endpoint_result("Cc1c(CNCc2ccccc2)nn(-c2ccc(Cl)cc2Cl)c1-c1ccc(Cl)cc1")
55.8
>>> endpoint_result("Cc1c(CN(C)C)nn(-c2ccc(Cl)cc2Cl)c1-c1ccc(Cl)cc1")
57.2
>>> endpoint_result("C[Si]1(C)CCN(Cc2nn(-c3ccc(Cl)cc3Cl)c(-c3ccc(Cl)cc3)c2CO)CC1")
61.9
>>> endpoint_result("C[Si]1(C)CCN(C(=O)c2cc(-c3ccc(Cl)cc3)n(-c3ccc(Cl)cc3)n2)CC1")
68.3
>>> endpoint_result("C[Si]1(C)CCN(Cc2cc(-c3ccc(Cl)cc3)n(-c3ccc(Cl)cc3)n2)CC1")
58.9
>>> endpoint_result("C[Si]1(C)CCN(NCc2cc(-c3ccc(Cl)cc3)n(-c3ccc(Cl)cc3)n2)CC1")
73.2
>>> endpoint_result("Cc1c(CN2CCCCC2)nn(-c2ccc(Cl)cc2Cl)c1-c1ccc(Cl)cc1")
88.8
>>> endpoint_result("Cc1c(CN2CCN(C)CC2)cc(-c2ccc(Cl)cc2)n1-c1ccc(Cl)cc1")
91.5
>>> endpoint_result("Cc1c(CN2CCN(C)CC2)nn(-c2ccc(Cl)cc2Cl)c1-c1ccc(Cl)cc1")
80.3
>>> endpoint_result("Cc1c(CN2CC[Si](C)(C)CC2)nn(-c2ccc(Cl)cc2Cl)c1-c1ccc(Cl)cc1")
54.2
>>> endpoint_result("COc1cccc2c1C(=O)c1c(O)c3c(c(O)c1C2=O)C[C@@](O)(C(=O)CO)C[C@@H]3O[C@H]1C[C@H](N)[C@H](O)[C@H](C)O1 [DOXORUBICIN]")
5.32

---

ASSAY TEXT: Solubility of the compound at pH 10.2 by HPLC method
Format: physicochemical
RUN CONDITIONS: buffer
# log10 solubility listing for each entry below
QUANTITY MEASURED: log10 solubility (log10 of the value in µM)

>>> endpoint_result("C[Si]1(C)CCN(NCc2cc(-c3ccc(Cl)cc3)n(-c3ccc(Cl)cc3)n2)CC1")
1.58
>>> endpoint_result("C[Si]1(C)CCN(Cc2nn(-c3ccc(Cl)cc3Cl)c(-c3ccc(Cl)cc3)c2CO)CC1")
0.38
>>> endpoint_result("C[Si]1(C)CCN(C(=O)c2cc(-c3ccc(Cl)cc3)n(-c3ccc(Cl)cc3)n2)CC1")
0.11
>>> endpoint_result("Cc1c(CN2CC[Si](C)(C)CC2)nn(-c2ccc(Cl)cc2Cl)c1-c1ccc(Cl)cc1")
1.04
>>> endpoint_result("C[Si]1(C)CCN(Cc2cc(-c3ccc(Cl)cc3)n(-c3ccc(Cl)cc3)n2)CC1")
0.30
>>> endpoint_result("Clc1ccc(-c2cc(CN3CCCCC3)nn2-c2ccc(Cl)cc2)cc1")
0.17
